I'd appreciate it if you could supply inhibition at 20 µM values for the items below.
Target: Toll-like receptor 4 (TLR4) (Homo sapiens, UniProt O00206+Q9Y6Y9)
Construct: expressed in transfected cells; host or cells: HEK293
Sequence (O00206 24-839, species assumed): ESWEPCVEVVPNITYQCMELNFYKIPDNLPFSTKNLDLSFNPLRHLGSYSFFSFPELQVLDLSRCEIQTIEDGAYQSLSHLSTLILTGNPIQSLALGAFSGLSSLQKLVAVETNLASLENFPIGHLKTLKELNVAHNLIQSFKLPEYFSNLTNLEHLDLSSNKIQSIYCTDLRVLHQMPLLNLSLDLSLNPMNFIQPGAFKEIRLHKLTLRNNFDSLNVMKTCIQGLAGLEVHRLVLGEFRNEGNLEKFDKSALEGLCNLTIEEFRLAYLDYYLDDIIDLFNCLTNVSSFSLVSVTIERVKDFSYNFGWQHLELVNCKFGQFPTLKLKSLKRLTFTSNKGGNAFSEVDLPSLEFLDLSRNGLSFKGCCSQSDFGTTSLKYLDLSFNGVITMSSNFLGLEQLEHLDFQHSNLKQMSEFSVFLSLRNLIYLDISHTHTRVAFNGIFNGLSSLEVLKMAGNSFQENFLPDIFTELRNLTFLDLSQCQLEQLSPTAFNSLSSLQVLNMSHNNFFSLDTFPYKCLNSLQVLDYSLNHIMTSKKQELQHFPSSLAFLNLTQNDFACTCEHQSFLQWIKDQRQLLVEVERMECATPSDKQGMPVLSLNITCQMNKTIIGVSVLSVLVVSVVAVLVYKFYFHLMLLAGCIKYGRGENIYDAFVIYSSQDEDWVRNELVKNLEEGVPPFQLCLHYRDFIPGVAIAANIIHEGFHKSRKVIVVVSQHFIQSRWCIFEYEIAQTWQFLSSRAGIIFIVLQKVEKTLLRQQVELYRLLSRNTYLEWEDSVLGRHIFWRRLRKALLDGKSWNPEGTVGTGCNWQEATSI
Sequence (Q9Y6Y9 17-160 limits assumed, species assumed): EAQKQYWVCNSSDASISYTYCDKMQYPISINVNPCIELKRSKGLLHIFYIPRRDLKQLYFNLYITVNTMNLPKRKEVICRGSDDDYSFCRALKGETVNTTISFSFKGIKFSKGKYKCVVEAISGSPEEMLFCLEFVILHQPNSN
Assay: NF-κB-inducible SEAP reporter assay of LPS-stimulated TLR4 activity in TLR4-expressing HEK293 cells
Type: cell-based
Conditions: compound 20 μM, LPS 10 ng/ml, 16-24 hours incubation, TLR4-expressing HEK293 cells; read-out: TLR-4 inhibition (%) Average
Numbers only; they are read as %.

[in] Consider the molecule Nc1ccc(N2CC[C@@]34CCCC[C@@H]3[C@@H]2Cc2ccc(O)cc24)c(F)c1 and give its recorded inhibition at 20 µM.
[out] 13.8

[in] Given CCOC(=O)Nc1ccc(N2CC[C@@]34CCCC[C@@H]3[C@@H]2Cc2ccc(OC)cc24)cc1 , respond with its inhibition at 20 µM.
[out] 0

[in] Provide one value: measured inhibition at 20 µM of COc1ccc2c(c1)[C@]13CCCC[C@@H]1[C@H](C2)N(S(=O)(=O)c1ccc([N+](=O)[O-])cc1)CC3
[out] 23.7

[in] Complete the entry with inhibition at 20 µM for Nc1ccc(N2CC[C@@]34CCCC[C@@H]3[C@@H]2Cc2ccc(O)cc24)cc1N
[out] 57.7

[in] Quickly give me recorded inhibition at 20 µM for COc1ccc2c(c1)[C@]13CCCC[C@@H]1[C@H](C2)N(CC(O)CN1CCOCC1)CC3 (stereo partly shown)
[out] 2.8

[in] Specify measured inhibition at 20 µM for Nc1ccc(N2CC[C@@]34CCCC[C@@H]3[C@@H]2Cc2ccc(O)cc24)nc1 .
[out] 13.3

[in] Tell me measured inhibition at 20 µM for Cc1cc(N2CC[C@@]34CCCC[C@@H]3[C@@H]2Cc2ccc(O)cc24)ccc1N please.
[out] 64.2

[in] Input CC(=O)Nc1ccc(S(=O)(=O)N2CC[C@@]34CCCC[C@@H]3[C@@H]2Cc2ccc(O)cc24)cc1 , output reported inhibition at 20 µM.
[out] 45.1

[in] Specify inhibition at 20 µM for Nc1cc(N2CC[C@@]34CCCC[C@@H]3[C@@H]2Cc2ccc(O)cc24)ccc1[N+](=O)[O-] and stop.
[out] 53.1

[in] Supply recorded inhibition at 20 µM for COc1ccc2c(c1)[C@]13CCCC[C@@H]1[C@H](C2)N(S(=O)(=O)c1ccc(N)cc1)CC3 here.
[out] 30

[in] Specify reported inhibition at 20 µM for the molecule shown: O=[N+]([O-])c1ccc(N2CC[C@@]34CCCC[C@@H]3[C@@H]2Cc2ccc(O)cc24)nc1
[out] 43.5

[in] Identify the reported inhibition at 20 µM for the following entry. CC(C)N(c1ccc(N2CC[C@@]34CCCC[C@@H]3[C@@H]2Cc2ccc(O)cc24)cc1)C(C)C
[out] 75.3

[in] Provide inhibition at 20 µM value for the following molecule: COc1ccc2c(c1)[C@]13CCCC[C@@H]1[C@H](C2)N(c1ccc(N)cc1)CC3
[out] 37.7

[in] // Input: Nc1ccc(S(=O)(=O)N2CC[C@@]34CCCC[C@@H]3[C@@H]2Cc2ccc(O)cc24)cc1 . Output its inhibition at 20 µM only.
[out] 42.1

[in] For the molecule COc1ccc2c(c1)[C@]13CCCC[C@@H]1[C@H](C2)N(c1ccc([N+](=O)[O-])c(N)c1)CC3 , report inhibition at 20 µM.
[out] 13.2

[in] Output measured inhibition at 20 µM for this item: Nc1ccc(N2CC[C@@]34CCCC[C@@H]3[C@@H]2Cc2ccc(O)cc24)c(C(F)(F)F)c1
[out] 22.9

[in] Kindly indicate its recorded inhibition at 20 µM. Item: COc1ccc2c(c1)[C@]13CCCC[C@@H]1[C@H](C2)N(CC(O)CSc1ccccc1)CC3 (stereo partly shown)
[out] 59.1

[in] Output measured inhibition at 20 µM for this item: O=[N+]([O-])c1ccc(N2CC[C@@]34CCCC[C@@H]3[C@@H]2Cc2ccc(O)cc24)cc1
[out] 0

[in] Report inhibition at 20 µM, nothing else, for this molecule: COc1ccc2c(c1)[C@]13CCCC[C@@H]1[C@H](C2)N(CC(O)COc1ccccc1)CC3 (stereo partly shown)
[out] 54.5

[in] Respond only with inhibition at 20 µM recorded for CC(C)Nc1ccc(N2CC[C@@]34CCCC[C@@H]3[C@@H]2Cc2ccc(O)cc24)cc1
[out] 99.8

[in] Please supply the value of reported inhibition at 20 µM for the item COc1ccc2c(c1)[C@]13CCCC[C@@H]1[C@H](C2)N(c1ccc(NC(=O)CCCc2ccccc2)cc1)CC3
[out] 6

[in] Please list inhibition at 20 µM recorded for the molecule Nc1ccc(N2CC[C@@]34CCCC[C@@H]3[C@@H]2Cc2ccc(O)cc24)cc1
[out] 90.5
